- TEST_TARGET: T1, CD123 (Homo sapiens (Human), UniProt P26951 19-305, limits assumed)
- T1 construct: also called CD123-Signal
- T1 sequence: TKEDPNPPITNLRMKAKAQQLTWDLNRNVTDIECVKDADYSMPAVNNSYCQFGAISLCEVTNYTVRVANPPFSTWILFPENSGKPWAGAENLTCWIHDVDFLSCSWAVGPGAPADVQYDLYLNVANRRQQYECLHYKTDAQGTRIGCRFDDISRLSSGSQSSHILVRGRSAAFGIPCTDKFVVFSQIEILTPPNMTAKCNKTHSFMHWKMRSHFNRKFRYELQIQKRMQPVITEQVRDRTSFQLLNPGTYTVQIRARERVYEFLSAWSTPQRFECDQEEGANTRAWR
- TEST_NAME: ELISA, format not described
- Design: unit not given here
Label condition met for high-side ELISA_avg (at or above 4) and condition not met for low-side ELISA_avg (below it).

BINDER	CLASS_LABEL
D domain SEQ ID NO: 763 (designed binder) MGSWWEFEDRLMAIYDRLYALGGSEAELAAFEKEIAAFESELQAYKGKGNPEVEYLRAEAALIRETLQAYRHN	condition met
D domain SEQ ID NO: 662 (designed binder) MGSWFEFPYRLEAIEERLYALGGSEAELAQFEQFIAWFEMDLQDYKGKGNPEVEALWFEANAIVEELDAYRHN	condition not met
D domain SEQ ID NO: 717 (designed binder) MGSWTEFVWRLDAIEWRLEALGGSEAELAAFEKEIAAFESELQAYKGKGNPEVEFLREEAAEIRDWLQAYRHN	condition met
D domain SEQ ID NO: 741 (designed binder) MGSWTEFEWRLYAIEDRLMALGGSEAELAAFEKEIAAFESELQAYKGKGNPEVEFLRDEAADIRQYLQAYRHN	condition met
D domain SEQ ID NO: 748 (designed binder) MGSWWEFEHRLFAIEDRLWALGGSEAELAAFEKEIAAFESELQAYKGKGNPEVEFLRDYAAEIRDYLQAYRHN	condition met
D domain SEQ ID NO: 698 (designed binder) MGSWYEFEDRLDAILYRLLALGGSEAELAWFERDIAFFESELQWYKGKGNPEVEALEWEAMAIDDELFAYRHN	condition met
D domain SEQ ID NO: 707 (designed binder) MGSWEEFTIRLGAIYWRLFALGGSEAELANFEWFIAEFEYELQPYKGKGNPEVEALVIEANAIDGELQAYRHN	condition not met
D domain SEQ ID NO: 761 (designed binder) MGSWYEFEERLEAIEDRLWALGGSEAELAAFEKEIAAFESELQAYKGKGNPEVEWLREQAAFIRTMLQAYRHN	condition met
D domain SEQ ID NO: 750 (designed binder) MGSWYEFEWRLMAIEDRLWALGGSEAELAAFEKEIAAFESELQAYKGKGNPEVEYLRHEAAEIRDVLQAYRHN	condition not met
